Test system: CCRF-CEM leukemia
Test: NCI-60 one-dose screen, 48 h
Conditions: 10 µM unless noted
This is part of a sample that, as a whole, favours compounds with a hit. Of some 83,000 tested, about 20% had one in any assay. Calls of active or inactive are those of the source. Rule for the calls: active = growth percent below 10; inactive = the rest.
Thanks in advance; please answer with one of these: class 1 = active, class 0 = inactive

Look over these answered cases.
>>> group_label("O=C(Nc1ccc(F)cc1F)c1cc(Cl)ccc1O")
"class 0"
>>> group_label("CCC1=C[C@]2(C3CC(=O)N(c4ccccc4)C3=O)CC(C(C)(C)C)C[C@@H]2[C@@H]2C(=O)N(c3ccccc3)C(=O)[C@H]12 (stereo partly specified)")
"class 0"
>>> group_label("COc1ccc(-c2nc(N3CCN(C(=O)C4CCCCC4)CC3)c3c4c(sc3n2)CCCC4)cc1")
"class 1"
>>> group_label("NC(CCc1nc2ccccc2c(=O)[nH]1)C(=O)O (stereo unspecified)")
"class 0"
>>> group_label("S=C1CCCC(=S)N1")
"class 0"

Read the next record carefully.
-- ask Write down the call the test reported for this molecule. Item: COc1cc2nc(-c3cccc4cccnc34)nc(NC3CCN(Cc4ccccc4)CC3)c2cc1OC
-- reply class 1
